Molecular target: T1, mouse MAdCAM expressed on cells (mouse, UniProt Q61826 22-405)
T1 construct: whole, on cells
T1 sequence (looked up): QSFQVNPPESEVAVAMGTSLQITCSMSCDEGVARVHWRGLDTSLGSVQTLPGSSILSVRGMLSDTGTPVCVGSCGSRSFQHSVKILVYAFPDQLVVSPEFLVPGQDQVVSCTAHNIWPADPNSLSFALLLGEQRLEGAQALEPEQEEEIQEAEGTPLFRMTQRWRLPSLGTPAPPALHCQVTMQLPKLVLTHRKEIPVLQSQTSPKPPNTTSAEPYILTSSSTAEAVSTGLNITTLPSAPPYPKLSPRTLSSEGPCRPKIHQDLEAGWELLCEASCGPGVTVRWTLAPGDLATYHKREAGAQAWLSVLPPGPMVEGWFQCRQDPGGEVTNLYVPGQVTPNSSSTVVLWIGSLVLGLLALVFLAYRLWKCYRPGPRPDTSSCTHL
Assay: cell binding
OBSERVABLE: binding result

INSERT INTO results (binder, value_reported) VALUES
  ('MAdCAM Antibody Table 2 Clone 84 (antibody, human IgG1, V domains shown) VH: QVQLVQSGAEVKKPGASVKVSCKASGGTFSSSAISWVRQAPGQGLEWMGWISAYNGYTNYAQKFQGRVTMTRDTSTSTVYMELSSLRSEDTAVYYCASRVHSGGSYPDDYWGQGTLVTVSS VL: DIQMTQSPSSLSASVGDRVTITCQASEHIYNYLNWYQQKPGKAPKLLIYAASSLQSGVPSRFSGSGSGTDFTLTISSLQPEDFATYYCQQTDSIPITFGQGTKVEIK', 'binds'),
  ('MAdCAM Antibody Table 2 Clone 64 (antibody, human IgG1, V domains shown) VH: EVQLLESGGGLVQPGGSLRLSCAASGFTFSNSDMNWVRQAPGKGLEWVAHIWNDGSQKYYADSVKGRFTISRDNSKNTLYLQMNSLRAEDTAVYYCARDRTDPGYSSAMDVWGQGTTVTVSS VL: DIQMTQSPSSLSASVGDRVTITCRASQDIRNYLGWYQQKPGKAPKLLIYDASSLETGVPSRFSGSGSGTDFTLTISSLQPEDFATYYCQQATSLPLTFGGGTKVEIK', 'no binding'),
  ('MAdCAM Antibody Table 2 Clone 39 (antibody, human IgG1, V domains shown) VH: QVQLVQSGAEVKKPGASVKVSCKASGYTFTSYYMHWVRQAPGQGLEWMAWMNPNSGNTGYAQKFQGRVTMTRDTSTSTVYMELSSLRSEDTAVYYCARDYDFWSGSLGYWGQGTLVTVSS VL: DIQMTQSPSSLSASVGDRVTITCRASQGISNYLAWYQQKPGKAPKLLIYAASSLQSGVPSRFSGSGSGTDFTLTISSLQPEDFATYYCQQSYSTPWTFGQGTKVEIK', 'no binding');
